Cited source: patent US11254686B1

biological target: adenosine A2B receptor (Homo sapiens (Human), UniProt P29275); experiment: Adenosine receptor activity assay (Table 1), A2B activity; format: biochemical; settings: A2A activity to A2B activity (A2A/A2B)
Sequence (P29275 whole entry): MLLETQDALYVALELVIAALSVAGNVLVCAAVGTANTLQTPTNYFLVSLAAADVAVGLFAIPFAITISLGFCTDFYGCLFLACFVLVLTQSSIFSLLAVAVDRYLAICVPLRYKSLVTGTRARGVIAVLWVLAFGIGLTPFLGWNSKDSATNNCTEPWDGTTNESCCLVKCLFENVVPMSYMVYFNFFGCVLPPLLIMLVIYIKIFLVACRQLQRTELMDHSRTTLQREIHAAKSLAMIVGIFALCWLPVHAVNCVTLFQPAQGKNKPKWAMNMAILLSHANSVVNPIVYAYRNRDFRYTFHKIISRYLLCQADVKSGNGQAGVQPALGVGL
Simple rule here: Ratio less than 5 is label 1, otherwise label 0.

Field: example entries. Status: answers known.
compound	class name
C[C@H](Nc1nc(C(=O)NCCC2CCN(C(=O)OC(C)(C)C)C2)c2sccc2n1)c1cncc(F)c1 (some centres unmarked)	label 1
C[C@H](Nc1nc(C(=O)NCc2ccccn2)c2sccc2n1)c1cccnc1	label 1
O=C(c1nc(NCc2ccc(C(F)(F)F)nc2)nc2ccsc12)N1CCCC1	label 1
Cc1cncc(CNc2nc(C(=O)N3CCCC3)c3sccc3n2)c1	label 0
C[C@H](O)CNC(=O)c1nc(N[C@@H](C)c2cncc(Cl)c2)nc2ccsc12	label 0

Task: Quick check: Ratio of `C[C@H](Nc1nc(C(=O)NCc2ccc(C#N)nc2)c2sccc2n1)c1ccccn1` under 5?
Output: label 1

Task: Quick check: Ratio of `Cc1cncc(CNc2nc(C(=O)N3CCC3)c3sccc3n2)c1` under 5?
Output: label 0

Task: Quick check: Ratio of `CC1(O)CN(C(=O)c2nc(NCc3cncc(F)c3)nc3ccsc23)C1` under 5?
Output: label 0

----------
assay: Hepatocyte (Hep) intrinsic clearance, monkey; assay type: in vitro ADME; settings: hepatocytes
For each of the molecules below, state its hepatocyte CLint.
Answers are plain numbers, in µL/min/1e6 cells.

Completed entries (count: 3):
molecule	measured
C[C@H](Nc1nc(C(=O)N2CC[C@H](O)C2)c2sccc2n1)c1ccccn1 [Example Z58]	0.19
C[C@H](Nc1nc(C(=O)N2CC[C@@H](F)C2)c2sccc2n1)c1ccccn1 [Example Z52]	18.7
C[C@H](Nc1nc(C(=O)N2CC[C@H](O)C2)c2sccc2n1)c1cccnc1 [Example Z28]	0.62

Let's switch to this molecule now.
Record C[C@H](Nc1nc(C(=O)N2CCCC2)c2sccc2n1)c1ccccn1 [Example Z10] , field hepatocyte CLint: 17.9

----------
target: adenosine A2A receptor (Homo sapiens (Human)); assay: Adenosine receptor activity assay (Table 1), A2A activity; assay type: biochemical; conditions: read-out: Ave A2A cAMP IC50
Sequence (P29274 whole entry): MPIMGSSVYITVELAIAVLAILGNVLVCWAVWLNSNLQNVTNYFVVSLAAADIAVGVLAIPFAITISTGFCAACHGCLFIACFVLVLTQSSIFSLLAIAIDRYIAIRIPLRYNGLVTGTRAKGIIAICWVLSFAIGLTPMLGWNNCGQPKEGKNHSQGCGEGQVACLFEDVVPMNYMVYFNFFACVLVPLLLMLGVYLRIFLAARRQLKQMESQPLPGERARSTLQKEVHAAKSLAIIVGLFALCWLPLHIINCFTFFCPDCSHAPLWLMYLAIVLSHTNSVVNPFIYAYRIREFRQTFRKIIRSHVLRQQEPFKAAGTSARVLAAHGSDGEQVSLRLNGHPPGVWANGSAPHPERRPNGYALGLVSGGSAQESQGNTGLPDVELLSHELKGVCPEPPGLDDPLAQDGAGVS
readout kind: IC50

Completed entries (count: 4):
substance smiles	IC50
C[C@H](Nc1nc(C(=O)N2CC(C(=O)NCCO)C2)c2sccc2n1)c1cncc(F)c1	> 500 nM
C[C@H](Nc1nc(C(=O)N2CCCC2)c2sccc2n1)c1ccccn1	50 to 100 nM
CO[C@@H]1CCN(C(=O)c2nc(N[C@@H](C)c3cccnc3)nc3cc(C)sc23)C1	50 to 100 nM
Cc1cc2nc(N[C@@H](C)c3cncc(F)c3)nc(C(=O)N3CCC3)c2s1	50 to 100 nM

Respectfully, I request IC50 for each entry included below.
1. C[C@H](Nc1nc(C(=O)NCCC2CCN(C(=O)OC(C)(C)C)CC2)c2sccc2n1)c1cncc(F)c1
2. CNc1cc2nc(N[C@@H](C)c3ccccn3)nc(C(=O)N3CC[C@@H](F)C3)c2s1

Output:
["100 to 500 nM", "100 to 500 nM"]

Respectfully, I request IC50 for each entry included below.
1. C[C@H](Nc1nc(C(=O)NCC2CCN(Cc3ccccc3)CC2)c2sccc2n1)c1ccccn1
2. Cc1cc2nc(N[C@@H](C)c3cccnc3)nc(C(=O)NCC3CCNCC3)c2s1
3. COc1ccc(CNC(=O)c2nc(N[C@@H](C)c3ccccn3)nc3cc(C)sc23)cn1
4. C[C@H](Nc1nc(C(=O)N2CC[C@H](O)C2)c2sccc2n1)c1ccnc(F)c1
5. C[C@H](O)CNC(=O)c1nc(N[C@@H](C)c2cncc(F)c2)nc2ccsc12
6. C[C@H](Nc1nc(C(=O)N2CCNC2)c2sccc2n1)c1cccnc1

Output:
["100 to 500 nM", "> 500 nM", "> 500 nM", "> 500 nM", "100 to 500 nM", "> 500 nM"]

Respectfully, I request IC50 for each entry included below.
1. Cc1cc2nc(N[C@@H](C)c3cccnc3)nc(C(=O)N3CC(O)C3)c2s1
2. O=C(c1nc(NCCc2ccccc2)nc2ccsc12)N1CCCC1

Output:
1: 100 to 500 nM; 2: 100 to 500 nM

Respectfully, I request IC50 for each entry included below.
1. O=C(c1nc(NCc2cc(F)cc(F)c2)nc2ccsc12)N1CCC1
2. C[C@H](Nc1nc(C(=O)NC2COC2)c2sccc2n1)c1ccccn1
3. C[C@H](Nc1nc(C(=O)NCc2cncc(C#N)c2)c2sccc2n1)c1ccccn1

Output:
["100 to 500 nM", "100 to 500 nM", "100 to 500 nM"]
